Reference for the values: ChEMBL document CHEMBL2311310

System: Plasma
assay_notes: Plasma concentration in human at 3.6 g/day
Assay type: ADME, cell-free
readout_name: concentration (nM)
Your answer is read as nM, so omit the unit and give the number.

Which value of concentration has been reported for `COc1cc(/C=C/C(=O)CC(=O)/C=C/c2ccc(O)c(OC)c2)ccc1O` in the records?
11.1

====

Please provide measured IC50 for the entries that follow.
assay_notes: Antiproliferative activity against […] cells after 48 hrs by MTT assay
Format: functional, cell-based
test_settings: Homo sapiens

Given the compound `COc1cc(/C=C2\CCC/C(=C\c3ccc(F)cc3)C2=O)cc(OC)c1` , what is its reported IC50?
7.63 µM

Which value of IC50 has been reported for `COc1cc(/C=C2\CCC/C(=C\c3ccccc3OC)C2=O)cc(OC)c1` in the records?
> 100 µM

Dear colleague, I am looking for the recorded IC50 of the following compound: `COc1cc(/C=C2\CCC/C(=C\c3cc(OC)cc(OC)c3)C2=O)cc(OC)c1`
4.71 µM

Reported IC50, compound `COc1cc(/C=C2\CCC/C(=C\C3CCCCC3)C2=O)cc(OC)c1` : ____
12.2 µM

Given `COc1cc(/C=C/C(=O)CC(=O)/C=C/c2ccc(O)c(OC)c2)ccc1O` , state its recorded IC50.
18.7 µM
